Biological target: T1, huNOV (Homo sapiens, UniProt P48745)
T1 sequence (P48745 32-357): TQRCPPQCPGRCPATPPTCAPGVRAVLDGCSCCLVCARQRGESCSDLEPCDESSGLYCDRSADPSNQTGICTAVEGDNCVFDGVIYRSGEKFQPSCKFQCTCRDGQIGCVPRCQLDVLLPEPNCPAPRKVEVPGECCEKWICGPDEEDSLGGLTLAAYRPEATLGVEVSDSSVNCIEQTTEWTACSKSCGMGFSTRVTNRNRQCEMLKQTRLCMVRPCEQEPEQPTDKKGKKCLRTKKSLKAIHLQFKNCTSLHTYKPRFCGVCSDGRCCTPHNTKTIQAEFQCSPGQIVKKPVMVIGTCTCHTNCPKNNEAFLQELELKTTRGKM
Test: Specificity ELISA (CCN proteins), huNOV
Type: binding
Conditions: coated 1 μg/ml; assessed when human CTGF signal approached saturation
Property: ELISA binding to huNOV

Molecule: SEQ ID NO: 15: optimized CTGF-binding hNGAL lipocalin mutein (protein, lipocalin mutein) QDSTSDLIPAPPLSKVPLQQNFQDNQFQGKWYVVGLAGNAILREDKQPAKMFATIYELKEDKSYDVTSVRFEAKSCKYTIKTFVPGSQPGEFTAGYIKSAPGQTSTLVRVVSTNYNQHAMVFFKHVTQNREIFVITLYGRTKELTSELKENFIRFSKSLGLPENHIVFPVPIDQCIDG
Result: No binding

Molecule: SEQ ID NO: 23: optimized CTGF-binding hNGAL lipocalin mutein (protein, lipocalin mutein) QDSTSDLIPAPPLSKVPLQQNFQDNQFQGKWYVVGVAGNAILRPDKQPAKMFATIYELKEDKSYDVTSVRFEAKSCKYTIKTFVPGSQPGEFTSGQIKSAPGQTSTLVRVVSTNYNQHAMVFFKHVSQNREIFVITLYGRTKELTSELKENFIRFSKSLGLPENHIVFPVPIDQCIDG
Result: No binding

Molecule: SEQ ID NO: 7: parent CTGF-binding hNGAL lipocalin mutein (protein, lipocalin mutein) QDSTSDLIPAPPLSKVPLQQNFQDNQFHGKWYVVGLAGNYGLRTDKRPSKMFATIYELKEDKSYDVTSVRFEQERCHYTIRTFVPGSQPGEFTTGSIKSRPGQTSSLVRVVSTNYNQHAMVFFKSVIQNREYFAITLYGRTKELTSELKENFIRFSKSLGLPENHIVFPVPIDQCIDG
Result: No binding

Molecule: SEQ ID NO: 3: parent CTGF-binding hNGAL lipocalin mutein (protein, lipocalin mutein) QDSTSDLIPAPPLSKVPLQQNFQDNQFHGKWYVVGRAGNNRLREDKDPPKMWATIYELKEDKSYNVTHVHFMTKKCRYIIDTFVPGSQPGEFTLGAIKSGPGMTSPLVRIVSTNYNQHAMVFFKWVNQNREWFTITLYGRTKELTSELKENFIRFSKSLGLPENHIVFPVPIDQCIDG
Result: No binding

Molecule: SEQ ID NO: 25: parent CTGF-binding hNGAL lipocalin mutein (protein, lipocalin mutein) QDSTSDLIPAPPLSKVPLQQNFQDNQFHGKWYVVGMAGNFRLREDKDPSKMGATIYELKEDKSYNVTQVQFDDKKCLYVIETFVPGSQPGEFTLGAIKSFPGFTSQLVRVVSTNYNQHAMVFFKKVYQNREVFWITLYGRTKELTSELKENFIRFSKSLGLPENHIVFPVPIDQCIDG
Result: No binding

Numbers sourced from patent US20240228562A1.
